assay: Clearance in fed CD-1 mouse at 1 mg/kg, iv as single dose; format: ADME, organism-based; set-up: dose 1 mg/kg, route intravenous; conditions: in vivo
test.readout: clearance

Lookup: Which clearance is listed for CNC(=O)Nc1ncc(SCCCOC)cc1Oc1cccnc1C ?
Found: 21.5 mL/min/kg

* * *

experiment: Solubility of the compound at pH 1.2; format: physicochemical; settings: buffer
test.readout: solubility

Lookup: Which solubility is listed for CNC(=O)Nc1ncc(SCCCOC)cc1Oc1cccnc1C ?
Found: > 1000 µg/mL

* * *

Recorded measurements of EC50, one per entry
target: Hexokinase-4 (Homo sapiens, UniProt P35557); experiment: Activation of purified human glucokinase isoform 3 (13 to 466 aa) using 5 mM glucose by spectrophotometry in presence of NAD+ and glucose 6-phosphate dehydrogenase
Number only, in nM; omit the unit.

The following compounds have reported results that may help.
smiles_code=CCc1ncccc1Oc1cc(Sc2ccccn2)cnc1NC=O test_target="Hexokinase-4 (Homo sapiens, UniProt P35557)" obs_value=13200
smiles_code=CCc1ncccc1Oc1cc(Sc2ccccn2)cnc1NC(=O)NCc1cccc(O)c1 test_target="Hexokinase-4 (Homo sapiens, UniProt P35557)" obs_value=276
smiles_code=CNC(=O)Nc1ncc(SC2CCN(C(=O)OC(C)(C)C)CC2)cc1Oc1cccnc1C test_target="Hexokinase-4 (Homo sapiens, UniProt P35557)" obs_value=132
smiles_code=CNC(=O)Nc1ncc(SC2CCN(C(C)=O)CC2)cc1Oc1cccnc1C test_target="Hexokinase-4 (Homo sapiens, UniProt P35557)" obs_value=111
smiles_code=CCc1ncccc1Oc1cc(Sc2ccccn2)cnc1NC(=O)NC test_target="Hexokinase-4 (Homo sapiens, UniProt P35557)" obs_value=88
smiles_code=CCn1nccc1Oc1cc(Sc2ccccn2)cnc1NC(=O)NC test_target="Hexokinase-4 (Homo sapiens, UniProt P35557)" obs_value=319
smiles_code=CNC(=O)Nc1ncc(Sc2ccccn2)cc1Oc1cccnc1C test_target="Hexokinase-4 (Homo sapiens, UniProt P35557)" obs_value=262
smiles_code=CNC(=O)Nc1ncc(SCc2ccccn2)cc1Oc1cccnc1C test_target="Hexokinase-4 (Homo sapiens, UniProt P35557)" obs_value=3090
smiles_code=CNC(=O)Nc1ncc(Sc2ccccn2)cc1Oc1c(C)n[nH]c1C test_target="Hexokinase-4 (Homo sapiens, UniProt P35557)" obs_value=2240
smiles_code=CCc1ncccc1Oc1cc(Sc2ccccn2)cnc1NC(=O)NCc1ccccn1 test_target="Hexokinase-4 (Homo sapiens, UniProt P35557)" obs_value=1620

Lookup: Which EC50 is listed for CCc1ncccc1Oc1cc(Sc2ccccn2)cnc1NC(N)=O ?
Found: 1730

Lookup: Which EC50 is listed for CCc1ncccc1Oc1cc(Sc2ccccn2)cnc1NC(=O)NCc1ccccc1O ?
Found: 393

Lookup: Which EC50 is listed for CNC(=O)Nc1ncc(SC2CCOCC2)cc1Oc1cccnc1C ?
Found: 336

Lookup: Which EC50 is listed for CCc1ncccc1Oc1cc(Sc2ccccn2)cnc1NC(=O)NCc1cccnc1 ?
Found: 758

* * *

test: Half life in fed CD-1 mouse at 1 mg/kg, iv as single dose; assay type: ADME, organism-based; parameters: dose 1 mg/kg, route intravenous; settings: in vivo
test.readout: half-life (h)
Number only, in h; omit the unit.

Lookup: Which half-life is listed for CNC(=O)Nc1ncc(SCCCOC)cc1Oc1cccnc1C ?
Found: 2.67

* * *

assay: Solubility of the compound at pH 6.5; format: physicochemical; conditions: buffer
test.readout: solubility (µg/mL)
Number only, in µg/mL; omit the unit.

Lookup: Which solubility is listed for CNC(=O)Nc1ncc(SCCCOC)cc1Oc1cccnc1C ?
Found: 45

* * *

Target: Hexokinase-4 (Homo sapiens, UniProt P35557)
Sequence (P35557 whole entry): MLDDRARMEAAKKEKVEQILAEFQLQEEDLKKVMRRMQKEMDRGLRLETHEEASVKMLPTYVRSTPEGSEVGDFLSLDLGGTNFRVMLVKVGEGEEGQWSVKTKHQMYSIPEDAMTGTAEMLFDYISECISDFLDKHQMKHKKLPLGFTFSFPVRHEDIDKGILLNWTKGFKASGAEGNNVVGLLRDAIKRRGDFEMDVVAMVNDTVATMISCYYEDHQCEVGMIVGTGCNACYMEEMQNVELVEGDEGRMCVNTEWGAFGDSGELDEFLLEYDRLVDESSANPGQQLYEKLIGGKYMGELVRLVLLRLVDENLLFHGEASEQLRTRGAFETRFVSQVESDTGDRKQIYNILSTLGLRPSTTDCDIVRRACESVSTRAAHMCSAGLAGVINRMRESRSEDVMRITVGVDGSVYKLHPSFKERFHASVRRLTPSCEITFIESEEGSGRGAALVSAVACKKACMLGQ
Assay: Activation of purified human glucokinase isoform 3 (13 to 466 aa) using 5 mM glucose by spectrophotometry in presence of NAD+ and glucose 6-phosphate dehydrogenase in presence of 4% HSA
Settings: read-out: EC50
pEC50: −log10 of the molar value.
# cutoff 6 applies to pEC50; >= gives 1, < gives -1

smiles_code=CNC(=O)Nc1ncc(Sc2ccccn2)cc1Oc1c(C)n[nH]c1C test_target="Hexokinase-4 (Homo sapiens, UniProt P35557)" assigned_label=1

Lookup: Reported pEC50 at or above 6? CNC(=O)Nc1ncc(SC2CCOCC2)cc1Oc1cccnc1C
Found: 1

Lookup: Reported pEC50 at or above 6? CCc1ncccc1Oc1cc(Sc2ccccn2)cnc1NC=O
Found: -1

Lookup: Reported pEC50 at or above 6? CNC(=O)Nc1ncc(SC2CCN(S(C)(=O)=O)CC2)cc1Oc1cccnc1C
Found: 1

* * *

test: Extraction ratio in mouse liver microsomes at 1 uM up to 20 mins by LC-MS/MS analysis; type: ADME; conditions: read-out: ERH
Recorded measurements of hepatic extraction ratio at 20 min, 1 µM, one per entry
Please respond with just the number, no unit label.

The following molecules have reported results that may help.
smiles_code=CNC(=O)Nc1ncc(SCC2CCOCC2)cc1Oc1cccnc1C test_readout="hepatic extraction ratio at 20 min, 1 µM" obs_value=0.43
smiles_code=CNC(=O)Nc1ncc(SC2CCOCC2)cc1Oc1cccnc1C test_readout="hepatic extraction ratio at 20 min, 1 µM" obs_value=0.3
smiles_code=CNC(=O)Nc1ncc(SCc2ccccc2)cc1Oc1cccnc1C test_readout="hepatic extraction ratio at 20 min, 1 µM" obs_value=0.93
smiles_code=CCc1ncccc1Oc1cc(Sc2ccccn2)cnc1NC(=O)NC test_readout="hepatic extraction ratio at 20 min, 1 µM" obs_value=0.85

Please look at the following molecule next.
Lookup: Which hepatic extraction ratio at 20 min, 1 µM is listed for CNC(=O)Nc1ncc(SC2CCN(C(C)=O)CC2)cc1Oc1cccnc1C ?
Found: 0.33

* * *

experiment: Fraction unbound in human plasma; assay type: ADME, cell-free
test.readout: fraction unbound
Please respond with just the number, no unit label.

Lookup: Which fraction unbound is listed for CNC(=O)Nc1ncc(SCCCOC)cc1Oc1cccnc1C ?
Found: 0.4

* * *

molecular target: Hexokinase-4 (Homo sapiens); test: Activation of purified human glucokinase isoform 3 (13 to 466 aa) using 5 mM glucose by spectrophotometry in presence of NAD+ and glucose 6-phosphate dehydrogenase in presence of 4% HSA; conditions: read-out: EC50
test.readout: log10 of EC50 (log10 of the value in µM)
Friendly reminder: values = log10 of EC50, unit µM.

smiles_code=CCNC(=O)Nc1ncc(Sc2ccccn2)cc1Oc1cccnc1CC test_target="Hexokinase-4 (Homo sapiens)" obs_value=-0.26
smiles_code=CCc1ncccc1Oc1cc(Sc2ccccn2)cnc1NC(=O)NCc1cccc(O)c1 test_target="Hexokinase-4 (Homo sapiens)" obs_value=0.45
smiles_code=CCc1ncccc1Oc1cc(Sc2ccccn2)cnc1NC(=O)NC test_target="Hexokinase-4 (Homo sapiens)" obs_value=-0.64
smiles_code=CCc1ncccc1Oc1cc(Sc2ccccn2)cnc1NC(=O)NCCO test_target="Hexokinase-4 (Homo sapiens)" obs_value=0.45
smiles_code=CCc1ncccc1Oc1cc(Sc2ccccn2)cnc1NC(=O)NCc1ccccc1O test_target="Hexokinase-4 (Homo sapiens)" obs_value=0.77

Please look at the following compound next.
Lookup: Which log10 of EC50 is listed for CNC(=O)Nc1ncc(SCc2ccccn2)cc1Oc1cccnc1C ?
Found: 0.97

* * *

Biological target: Hexokinase-4 (Homo sapiens, UniProt P35557)
Sequence (P35557 whole entry): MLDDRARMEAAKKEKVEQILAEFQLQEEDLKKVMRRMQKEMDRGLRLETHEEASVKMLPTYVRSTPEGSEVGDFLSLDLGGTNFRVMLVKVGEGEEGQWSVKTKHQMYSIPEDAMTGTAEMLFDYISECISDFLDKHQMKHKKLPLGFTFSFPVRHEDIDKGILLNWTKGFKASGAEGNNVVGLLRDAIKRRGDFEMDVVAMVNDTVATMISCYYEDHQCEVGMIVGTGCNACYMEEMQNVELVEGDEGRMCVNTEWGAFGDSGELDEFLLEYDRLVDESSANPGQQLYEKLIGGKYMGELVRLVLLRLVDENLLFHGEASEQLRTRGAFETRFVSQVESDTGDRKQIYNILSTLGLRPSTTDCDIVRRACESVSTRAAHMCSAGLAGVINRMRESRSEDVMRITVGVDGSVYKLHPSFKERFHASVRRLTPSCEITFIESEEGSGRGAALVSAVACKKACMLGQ
Assay: Activation of purified human glucokinase isoform 3 (13 to 466 aa) using 5 mM glucose by spectrophotometry in presence of NAD+ and glucose 6-phosphate dehydrogenase in presence of 4% HSA
Details: read-out: EC50
EC50 strictly under 2000 nM means Condition met; at 2000 nM or over means Condition not met.

Lookup: Lab note: confirm whether the reported EC50 for this compound is below 2000 nM, equality not counting. compound: CNC(=O)Nc1ncc(Sc2ccccn2)cc1Oc1cccnc1C
Found: Condition met
